Just for reference, paper PMC11618496 is where these values come from.

Procedure details: in vivo
Test parameters: female, rhesus monkey, Tissue concentration, Basal ganglia
Protocol: RT-SHIV was selected for the study since it contains the HIVHXBc2 RT that is sensitive to RPV. RT-SHIV was obtained through the NIH AIDS Reagent Program, Division of AIDS, NIAID, NIH[17]–[19]. […] A cocktail of methanol containing internal standards was added to precipitate proteins. […] Drug concentrations were calculated from a standard curve with a range of 0.5–2000 ng/mL using Analyst software. […] Plasma concentrations of CAB were measured weekly. […]
Entries and their concentration at 3 weeks values follow.
Only the number, expressed in ng/g, is required.

Cc1cc(/C=C/C#N)cc(C)c1Nc1ccnc(Nc2ccc(C#N)cc2)n1 [RPV, rilpivirine]
340

API: the following record is the query input.
IN: Report concentration at 3 weeks for C[C@H]1CO[C@@H]2Cn3cc(C(=O)NCc4ccc(F)cc4F)c(=O)c(O)c3C(=O)N12 [CAB, cabotegravir]
OUT: 26

----------
Entries and their concentration at 3 weeks values follow.
Procedure details: in vivo
Test parameters: female, rhesus monkey, Tissue concentration, Mesenteric lymph nodes
Only the number, expressed in ng/g, is required.

C[C@H]1CO[C@@H]2Cn3cc(C(=O)NCc4ccc(F)cc4F)c(=O)c(O)c3C(=O)N12
23700

API: the following record is the query input.
IN: Report concentration at 3 weeks for `Cc1cc(/C=C/C#N)cc(C)c1Nc1ccnc(Nc2ccc(C#N)cc2)n1`
OUT: 28800

----------
Procedure details: in vivo
Test parameters: female, rhesus monkey, Tissue concentration, Duodenum
Entries and their concentration at 3 weeks values follow.
Only the number, expressed in ng/g, is required.

C[C@H]1CO[C@@H]2Cn3cc(C(=O)NCc4ccc(F)cc4F)c(=O)c(O)c3C(=O)N12
569

API: the following record is the query input.
IN: Report concentration at 3 weeks for `Cc1cc(/C=C/C#N)cc(C)c1Nc1ccnc(Nc2ccc(C#N)cc2)n1`
OUT: 666
